- experiment.notes: Primary qHTS for inhibitors of nuclear receptor binding SET domain protein 2 (NSD2) in an isogenic RCH-ACV NSD2 p.E1099K mutant (9B) (AID 1645876); further: nearly all actives have a fitted effect of over 70% in size
- assay.setup: RCH-ACV (leukaemia line) NSD2 E1099K (9B) viability, CellTiter-Glo, 72 h; series mostly up to 44.9 µM
Results filed as inconclusive are left out. The source made the active and inactive calls. The call rests on the fitted dose curve; in most records, active means well fitted inhibition curve with a large enough effect; inconclusive means small, poorly fitted or top-dose-only effect; inactive means flat fitted curve, though single readings scatter.
Result category, one only: active, inactive

For this molecule, state the assay outcome: CC(=O)Nc1nc(C)c(-c2nc(N3CCCC(O)C3)no2)s1 (stereo not drawn)
active

For this molecule, state the assay outcome: C=C[C@]1(C)C[C@H](O)[C@H]2C(=C)C(=O)O[C@@H]2[C@H]1C(=C)CO
active

For this molecule, state the assay outcome: O=C(COc1ccc2ccccc2c1Br)Nc1cccnc1
inactive

For this molecule, state the assay outcome: CCCCC1CCC(c2nc(-c3ccncc3)no2)CC1 (stereo not drawn)
inactive

For this molecule, state the assay outcome: CN(C)CCN(Cc1ccc(-c2ccc(CNCCc3ccccc3)cc2)cc1)C(=O)CCC1CCCC1
active

For this molecule, state the assay outcome: O=c1cc(NCCCN[C@@H]2CCOc3c(Br)cc(Br)cc32)[nH]c2ccsc12
active

For this molecule, state the assay outcome: Cc1cc2occ(CN(C)CCN(C)Cc3cn(-c4cccc(C(F)(F)F)c4)c4ccccc34)c(=O)c2cc1C
active

For this molecule, state the assay outcome: CC#CCn1c(N2CCCC(N)C2)nc2c1c(=O)n(Cc1nc(C)c3ccccc3n1)c(=O)n2C (stereo not drawn)
inactive

For this molecule, state the assay outcome: COc1ccc(S(=O)(=O)Nc2cc(Cl)cc(Cl)c2OC)cc1N1CCNCC1
active

For this molecule, state the assay outcome: COc1cc2c(Nc3cc(F)c(Cl)c(Cl)c3)ncnc2cc1OCC1CCCN(C)CCC1
active

For this molecule, state the assay outcome: COc1cc(NC(=O)c2cc(C3CC3)on2)c(OC)cc1Cl
inactive

For this molecule, state the assay outcome: C=C1C(=O)OC2/C=C(\COC(C)=O)CC/C=C(\C=O)CC(OC(=O)CC(C)C)C12 (stereo not drawn)
active

For this molecule, state the assay outcome: C=C1C(=O)O[C@@H]2C[C@@]3(C)C[C@@H](O)C[C@H](C)C3=C[C@H]12
active

For this molecule, state the assay outcome: OC[C@H]1O[C@@H](OC/C=C/c2ccc(O)cc2)[C@H](O)[C@@H](O)[C@@H]1O
inactive

For this molecule, state the assay outcome: Cn1ncc(Cl)c1-c1cc(C(=O)N[C@H](CN)Cc2ccc(F)c(F)c2)oc1Cl
active

For this molecule, state the assay outcome: COc1cc(F)c(C(C)C)cc1-c1ccc(C(F)(F)F)cc1CN1C(=O)OC(c2cc(C(F)(F)F)cc(C(F)(F)F)c2)C1C (stereo not drawn)
inactive

For this molecule, state the assay outcome: C=C(COC(=O)C(O)C(O)CN)C12OC1C1(C)C(=CC2=O)C(O)C(O)CC1C (stereo not drawn)
inactive

For this molecule, state the assay outcome: NC(=O)CCCSc1nc(N)nc(-c2c(Cl)cc3c4c(cccc24)COC3)n1
active

For this molecule, state the assay outcome: O=C(O)CSc1cc(NS(=O)(=O)c2ccc(Br)cc2)c2ccccc2c1O
active

For this molecule, state the assay outcome: CCC(C)C1NC(=O)C(Cc2ccccc2)NC(=O)C(CCCCCC(=O)C(O)CO)NC(=O)C2CCCCN2C1=O (stereo not drawn)
active

For this molecule, state the assay outcome: COc1ccccc1N1CCN(c2ncnc3n[nH]c(Br)c23)CC1
active

For this molecule, state the assay outcome: CNc1cccc(CCOc2ccc3c(c2)CN(CC(F)(F)F)C(=O)[C@H](CC(=O)O)C3)n1
inactive

For this molecule, state the assay outcome: CC(C)CC(=O)c1c(O)cc2c(c1O)C(CC(C)C)C1=C(O2)C(C)(C)C(=O)C(C)(C)C1=O (stereo not drawn)
active

For this molecule, state the assay outcome: C=CC(=O)Nc1cc(-n2c(=O)ccc3cnc4ccc(-c5ccc(NS(C)(=O)=O)cc5)cc4c32)ccc1C
active

For this molecule, state the assay outcome: CC(C)(C)[C@H](NC(=O)c1ccc(N)c(Cl)c1)C(=O)N1CCC[C@H]1C(=O)N[C@H](C#N)CC(=O)O
inactive

For this molecule, state the assay outcome: Nc1nc(NC2CC2)cc(-c2cccc(Cl)c2Cl)n1
active

For this molecule, state the assay outcome: C[C@H]1CC[C@@]2(OC1)O[C@H]1CC3[C@@H]4CC[C@@H]5C[C@@H](O[C@@H]6O[C@H](CO)[C@@H](O[C@@H]7O[C@@H](C)[C@H](O)[C@@H](O)[C@H]7O)[C@H](O)[C@H]6O[C@@H]6O[C@H](CO)[C@@H](O)[C@H](O)[C@H]6O)CC[C@]5(C)C4CC[C@]3(C)[C@H]1[C@@H]2C (stereo partly drawn)
active

For this molecule, state the assay outcome: CNc1nc(Nc2ccc(C(=O)N3CCOCC3)cc2OC)nc2[nH]cc(Cl)c12
active
